Numbers sourced from the supplement of paper PMC10201428.

system: VchCAST RNA-guided transposition machinery (E. coli BL21(DE3) host, lacZ target); test: relative integration efficiency (T-RL orientation) vs wild-type transposon end (log2 (normalized fold change)); transposon end mutated: right end (5 bp flank + 75 bp right end); higher = more efficient transposition
Recorded relative integration efficiency (log2) by entry
assay endpoint: relative integration efficiency (log2)

1. ACATTTGTTGATACAACCATAAAATGATAATTAATAATTATTTATAATCAGCAACTTAACCACAAACACCCATAAATTGATAATTATCACACCCATAAATTGATATTGCCTCTGATCATAGTCAGAC    -5.71
2. ACATTTGTTGATACAACCATAAAATGATAATTAATCACCCATAAATTGATAATTATCACACCCATAAATTGATATTGCCTCTGATCATAGTCAGACCAACATTGCTACGACCCGTATTCGCACCGAC    -1.92
3. ACATTTGTTGATACAACCATAAGTTGATATTTTCAACCATAAAATGATAATTATCACACCCATAAATTGATAATTACTCTGATCATAGTCAGACCAACATTGCTACGACCCGTATTCGCACCGACAC    -0.162
4. ACATTTGTTGATACCCAACGCCCCGTCGCCGGCACAAACGCCCGGTCGCCGGCGACACAAACGCCCGGTCGCGGTAAGAGGATCATAGTCAGACCAACATTGCTACGACCCGTATTCGCACCGACAC    -6.49
5. ACATTTGTTGATACAACCATAAGTTGATATTTTCAACCATAAAATGATAATTATCACAACCATAAGTTGATATTTTCTCTGATCATAGTCAGACCAACATTGCTACGACCCGTATTCGCACCGACAC    -0.233
6. ACATTTGTTGATACACCCATAAATTGATAATTACAACCATATATTGATATCTCTCACAACCATAAAATGATAATTACTCTGATCATAGTCAGACCAACATTGCTACGACCCGTATTCGCACCGACAC    -0.747
7. ACATTTGTTGATACAACCATAAAATGATAATTACACCCATAAATTGATAATTATCACACCCATAAATTGATATTGCCTCTGATCATAGTCAATGTGATAACAATCACAGAAGACCAAGCACCGACAC    0.245
8. ACATTTGTTGATACCACCATAAAATGATAATTACACCCCTAAATTGATAATTATCACACCCAATTTAACTATAACGCTCTGATCATAGTCAGACCAACATTGCTACGACCCGTATTCGCACCGACAC    -2.41
9. ACATTTGTTGATACAACCATAAAATGATAATTACACCCATAAATTGATTTTTATCACACCCATAAATTGATATTGCCTCTGATCATAGTCAGACCAACATTGCTACGACCCGTATTCGCACCGACAC    -0.629
10. ACATTTGTTGATACAACCATAAAATGATAATTACACCCATCCCGGTCGCCGGCGACACAAACGCCCGGTCGCGGTAAGAGGATCATAGTCAGACCAACATTGCTACGACCCGTATTCGCACCGACAC    -2.64
